Reported values of pIC50 for individual entries
molecular target: human ACC2 (Homo sapiens); construct: made in house; host or cells: insect cells (baculoviral expression system); test: ACC2 assay, spectrophotometric 384 well assay (NADH-linked, coupled lactate dehydrogenase/pyruvate kinase); type: biochemical; conditions: ACC2 assay, hACC2 construct lacking 128 N-terminal amino acids, 25° C., 340 nm; read-out: IC50
# log scale: pIC50 equals minus log10 of the concentration in mol/L

CC(=O)N[C@@H](C)c1ccc(C2CCN(c3ncc(-c4ccc(C)c(Cl)c4)cn3)CC2)cc1 : 7.05

QUERY: Given CCNC(=O)c1cnc(N2CCC(c3ccc([C@H](C)NC(C)=O)cc3)CC2)nc1 , state its recorded pIC50.
RESULT: 5.92

QUERY: Entry under review: CC(=O)N[C@@H](C)c1ccc(C2CCN(c3ccnc(Cl)c3C)CC2)cc1 . Reported pIC50?
RESULT: 6.39

QUERY: # get_value(readout='pIC50', item= COc1cc(N2CCC(c3ccc([C@H](C)NC(C)=O)cc3)CC2)ccc1OCC1CC1 )
RESULT: 6.32

QUERY: Param item = CCOc1ccc(N2CCC(c3ccc([C@H](C)NC(=O)N(C)C)cc3)CC2)c(OCC)c1 ; retrieve measured pIC50.
RESULT: 5.46

QUERY: Which pIC50 reading was recorded for the compound COCCOc1ccc(N2CCC(c3ccc([C@H](C)NC(C)=O)cc3)CC2)cc1OC ?
RESULT: 4.84

QUERY: Which measured pIC50 value corresponds to CC(=O)N[C@@H](C)c1ccc(C2CCN(c3ccnc(OC4CC=CC4)c3)CC2)cc1 ?
RESULT: 7.15

QUERY: Query: pIC50; subject: CC(=O)N[C@@H](C)c1ccc(C2CCN(c3ncc(-c4ccc5c(c4)OCCCO5)cn3)CC2)cc1
RESULT: 6.39

----------
target: human ACC2 (Homo sapiens, UniProt O00763); construct: made in house; host or cells: insect cells (baculoviral expression system); experiment: ACC2 assay, spectrophotometric 384 well assay (NADH-linked, coupled lactate dehydrogenase/pyruvate kinase); format: biochemical; conditions: ACC2 assay, hACC2 construct lacking 128 N-terminal amino acids, 25° C., 340 nm; read-out: IC50
Sequence (O00763 129-2458 limits assumed): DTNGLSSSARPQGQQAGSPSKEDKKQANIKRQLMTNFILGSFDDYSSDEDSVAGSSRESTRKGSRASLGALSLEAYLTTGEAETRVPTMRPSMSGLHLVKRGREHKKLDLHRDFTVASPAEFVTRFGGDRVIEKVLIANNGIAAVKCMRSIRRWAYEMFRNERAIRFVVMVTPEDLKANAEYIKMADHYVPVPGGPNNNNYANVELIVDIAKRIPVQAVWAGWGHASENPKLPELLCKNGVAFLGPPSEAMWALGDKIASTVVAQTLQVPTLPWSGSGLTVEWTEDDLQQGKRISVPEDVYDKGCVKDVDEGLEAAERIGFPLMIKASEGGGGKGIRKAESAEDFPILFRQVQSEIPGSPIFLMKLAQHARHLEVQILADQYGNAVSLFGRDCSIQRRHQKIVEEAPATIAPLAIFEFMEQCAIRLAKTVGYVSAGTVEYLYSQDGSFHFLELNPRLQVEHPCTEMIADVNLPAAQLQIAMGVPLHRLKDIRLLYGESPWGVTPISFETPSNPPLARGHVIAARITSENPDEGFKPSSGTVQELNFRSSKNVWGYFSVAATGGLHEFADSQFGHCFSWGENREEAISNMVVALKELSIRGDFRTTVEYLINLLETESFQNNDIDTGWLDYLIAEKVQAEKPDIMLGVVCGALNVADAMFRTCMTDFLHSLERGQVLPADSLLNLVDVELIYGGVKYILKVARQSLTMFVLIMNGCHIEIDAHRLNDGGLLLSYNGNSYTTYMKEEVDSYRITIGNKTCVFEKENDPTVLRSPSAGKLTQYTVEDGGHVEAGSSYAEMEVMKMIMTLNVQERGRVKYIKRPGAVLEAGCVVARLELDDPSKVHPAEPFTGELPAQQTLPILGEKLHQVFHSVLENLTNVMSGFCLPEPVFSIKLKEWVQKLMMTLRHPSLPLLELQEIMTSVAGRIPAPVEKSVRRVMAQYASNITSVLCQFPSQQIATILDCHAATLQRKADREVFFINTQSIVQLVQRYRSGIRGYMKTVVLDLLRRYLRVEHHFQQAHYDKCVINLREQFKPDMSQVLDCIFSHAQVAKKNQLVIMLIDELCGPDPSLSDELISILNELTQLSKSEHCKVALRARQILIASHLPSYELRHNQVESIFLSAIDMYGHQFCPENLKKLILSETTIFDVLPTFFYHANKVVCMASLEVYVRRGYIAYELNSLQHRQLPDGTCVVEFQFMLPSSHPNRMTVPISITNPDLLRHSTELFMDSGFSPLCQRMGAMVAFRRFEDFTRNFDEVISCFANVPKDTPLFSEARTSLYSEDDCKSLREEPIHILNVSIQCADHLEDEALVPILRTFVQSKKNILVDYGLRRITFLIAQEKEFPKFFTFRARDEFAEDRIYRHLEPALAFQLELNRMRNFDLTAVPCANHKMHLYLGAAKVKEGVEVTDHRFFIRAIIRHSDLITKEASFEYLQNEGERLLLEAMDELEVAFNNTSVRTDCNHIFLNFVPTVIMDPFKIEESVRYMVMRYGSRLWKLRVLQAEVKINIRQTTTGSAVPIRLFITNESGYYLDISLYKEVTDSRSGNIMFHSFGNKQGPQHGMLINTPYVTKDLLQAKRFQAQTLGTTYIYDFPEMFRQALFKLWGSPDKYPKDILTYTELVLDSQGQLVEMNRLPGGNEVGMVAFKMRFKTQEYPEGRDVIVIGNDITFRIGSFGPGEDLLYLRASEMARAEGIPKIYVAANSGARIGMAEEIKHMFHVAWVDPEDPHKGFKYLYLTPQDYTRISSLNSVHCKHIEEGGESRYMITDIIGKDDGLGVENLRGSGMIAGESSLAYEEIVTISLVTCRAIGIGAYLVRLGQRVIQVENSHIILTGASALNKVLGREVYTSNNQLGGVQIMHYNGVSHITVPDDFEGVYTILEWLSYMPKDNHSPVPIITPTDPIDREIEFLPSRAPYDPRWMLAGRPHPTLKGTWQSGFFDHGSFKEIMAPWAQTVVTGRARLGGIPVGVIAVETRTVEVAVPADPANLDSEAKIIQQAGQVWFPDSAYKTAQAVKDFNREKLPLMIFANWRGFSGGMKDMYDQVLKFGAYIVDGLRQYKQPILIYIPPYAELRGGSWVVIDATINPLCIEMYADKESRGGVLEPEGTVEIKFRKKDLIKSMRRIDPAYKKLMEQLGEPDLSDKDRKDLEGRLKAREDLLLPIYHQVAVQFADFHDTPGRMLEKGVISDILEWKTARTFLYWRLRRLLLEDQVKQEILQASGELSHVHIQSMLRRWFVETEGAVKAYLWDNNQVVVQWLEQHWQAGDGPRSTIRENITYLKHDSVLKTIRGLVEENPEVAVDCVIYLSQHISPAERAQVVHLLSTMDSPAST
Criterion: IC50 strictly less than 1 µM. Met: met. Not met: not met.

Please review the entries below; each comes with its answer.
CC(=O)N[C@@H](C)c1ccc(C2CCN(c3ncc(-c4cc5ccccc5o4)cn3)CC2)cc1 [Example 10.14] : met
CCOc1ccc(N2CCC(c3ccc([C@H](C)NC(=O)c4cc[nH]n4)cc3)CC2)cc1 [Example 6.29] : not met
CC(=O)N[C@@H](C)c1ccc(C2CCN(c3ccc4c(c3)ncn4C)CC2)cc1 [Example 1.72] : not met
COC(=O)c1cnc(N2CCC(c3ccc([C@H](C)NC(C)=O)cc3)CC2)nc1 [Example 4.36] : not met
CC#CCOc1ccc(N2CCC(c3ccc([C@H](C)NC(C)=O)cc3)CC2)cc1 [Example 9.25] : not met
CNC(=O)c1csc(N2CCC(c3ccc([C@H](C)NC(C)=O)cc3)CC2)n1 [Example 5.9] : not met

QUERY: Strictly below 1 µM in IC50? CCOc1ccc(N2CCC(c3ccc([C@H](C)NC(=O)C4CCC4)cc3)CC2)cc1 [Example 6.7]
RESULT: met

QUERY: # check: IC50 < 1 µM for CC(=O)N[C@@H](C)c1ccc(C2CCN(c3ncc(-c4ccc5c(c4)CCO5)cn3)CC2)cc1 [Example 10.24]
RESULT: met

QUERY: Determine whether this compound shows IC50 lower than 1 µM (ties excluded): CCOc1ccc(N2CCC(c3ccc([C@H](C)NS(=O)(=O)C(F)(F)F)cc3)CC2)cc1 [Example 17.4]
RESULT: not met

QUERY: Below 1 µM on IC50? Entry CNc1cc(N2CCC(c3ccc([C@H](C)NC(C)=O)cc3)CC2)ncn1 [Example 11.85]
RESULT: not met

----------
biological target: human ACC2 (Homo sapiens, UniProt O00763); construct: made in house; host or cells: insect cells (baculoviral expression system); experiment: ACC2 assay, spectrophotometric 384 well assay (NADH-linked, coupled lactate dehydrogenase/pyruvate kinase); format: biochemical; conditions: ACC2 assay, hACC2 construct lacking 128 N-terminal amino acids, 25° C., 340 nm; read-out: IC50
Criterion: IC50 strictly under 0.5 µM. Met: T. Not met: F.

CC(=O)N[C@@H](C)c1ccc(C2CCN(c3ccnc(NCCF)n3)CC2)cc1 [Example 11.102] : F
COCCOc1ccc(N2CCC(c3ccc([C@H](C)NC(C)=O)cc3)CC2)c(F)c1 [Example 1.97] : F
C[C@H](NC(=O)N(C)C)c1ccc(C2CCN(c3ccnc(Oc4cncnc4)c3)CC2)cc1 [Example 1.107] : F
CC(=O)N[C@@H](C)c1ccc(C2CCN(c3ccc(OC4CCCCC4)cc3)CC2)cc1 [Example 9.23] : T
CC(=O)N[C@@H](C)c1ccc(C2CCN(c3ncc(-c4ccc5ncccc5c4)cn3)CC2)cc1 [Example 10.70] : T

QUERY: For this compound, is IC50 lower than 0.5 µM? CC(=O)N[C@@H](C)c1ccc(C2CCN(c3ncc(-c4ccc(C5CC5)cc4)cn3)CC2)cc1 [Example 10.41]
RESULT: F

QUERY: Strictly below 0.5 µM in IC50? CC(=O)N[C@@H](C)c1ccc(C2CCN(c3cc(N(C)Cc4ccccc4)ncn3)CC2)cc1 [Example 11.82]
RESULT: F

----------
IC50 values for the molecules below.
Target: human ACC2 (Homo sapiens)
Construct: made in house; host or cells: insect cells (baculoviral expression system)
Test: ACC2 assay, spectrophotometric 384 well assay (NADH-linked, coupled lactate dehydrogenase/pyruvate kinase)
Assay type: biochemical
Settings: ACC2 assay, hACC2 construct lacking 128 N-terminal amino acids, 25° C., 340 nm; read-out: IC50
Protocol: Spectrophotometric 384 Well Assay Malonyl CoA formation by acetyl CoA carboxylases is stoichometrically linked to the consumption of ATP. ACC2 activity is measured in a NADH-linked kinetic method measuring ADP generated during the ACC reaction using a coupled lactate dehydrogenase/pyruvate kinase reaction. For biological testing, a human ACC2 construct which lacks the 128 amino acids at the N-terminus for increased solubility (nt 385-6966 in Genbank entry AJ575592) is cloned. […]
Give the value, in units of nM, as a plain number.

Some solved cases for reference:
CCCOc1ccc(N2CCC(c3ccc([C@H](C)NC(=O)OC)cc3)CC2)cc1 [Example 1.13] : 100
CC(=O)N[C@@H](C)c1ccc(C2CCN(c3ncc(-c4ccc(C(C)C)cc4)cn3)CC2)cc1 [Example 10.11] : 5800
CC(=O)N[C@@H](C)c1ccc(C2CCN(c3ncc(C(=O)Nc4cc(C)on4)cn3)CC2)cc1 [Example 18.78] : 12700

QUERY: What value of measured IC50 is listed for C[C@H](NC(=O)C1CC1)c1ccc(C2CCN(c3ncc4nc(-c5ccsc5)oc4n3)CC2)cc1 [Example 4.301] ?
RESULT: 390

QUERY: Entry under review: CC(=O)N[C@@H](C)c1ccc(C2CCN(c3ccc(OC4CCCC4)c(Cl)c3)CC2)cc1 [Example 8.39] . Reported IC50?
RESULT: 110

QUERY: Give its IC50 value. Item: COC1CN(C(=O)c2cnc(N3CCC(c4ccc([C@H](C)NC(C)=O)cc4)CC3)nc2)C1 [Example 18.23]
RESULT: 3100

QUERY: Need IC50, item CC(=O)N[C@@H](C)c1ccc(C2CCN(c3ncc(C(=O)Nc4ccc(F)cc4)cn3)CC2)cc1 [Example 18.3]
RESULT: 180

QUERY: Recorded IC50 for CC(=O)N[C@@H](C)c1ccc(C2CCN(c3ncnc4ccsc34)CC2)cc1 [Example 4.24] , please?
RESULT: 2100

QUERY: Which value of IC50 has been reported for CCOc1cccc(N2CCC(c3ccc([C@H](C)NC(C)=O)cc3)CC2)n1 [Example 4.27] in the records?
RESULT: 330

QUERY: Any idea what its IC50 is? The molecule is COCCCOc1ccc(N2CCC(c3ccc([C@H](C)NC(C)=O)cc3)CC2)c(F)c1 [Example 1.99]
RESULT: 330

----------
# Lookup of reported pIC50 keyed by entry
molecular target: human ACC2 (Homo sapiens, UniProt O00763); construct: made in house; host or cells: insect cells (baculoviral expression system); assay: ACC2 assay, spectrophotometric 384 well assay (NADH-linked, coupled lactate dehydrogenase/pyruvate kinase); assay type: biochemical; settings: ACC2 assay, hACC2 construct lacking 128 N-terminal amino acids, 25° C., 340 nm; read-out: IC50
Entry type: numeric. Quantity: pIC50, the -log10 of concentration in molar units.

QUERY: Any idea what pIC50 was measured for CCCCNc1cc(N2CCC(c3ccc([C@H](C)NC(C)=O)cc3)CC2)ncn1 ?
RESULT: 5.48

QUERY: Request the reported pIC50 associated with COc1ccc(-c2cnc(N3CCC(c4ccc([C@H](C)NC(C)=O)cc4)CC3)nc2)cc1
RESULT: 7.00

QUERY: Given the entry CCC(C)Oc1ccc(N2CCC(c3ccc([C@H](C)NC(C)=O)cc3)CC2)cc1C#N (stereo partly shown) , report its measured pIC50.
RESULT: 5.52

QUERY: Can you look up the measured pIC50 of CCOc1ccc(N2CCC(c3ccc([C@H](C)NC(=O)N4CCC4)cc3)CC2)cc1 for me?
RESULT: 5.66
